observable: melting point

The compound listed as O=S(=O)(Cl)c1ccc(-c2cccc(F)c2)s1 shows melting point equal to 75 to 84 °C

Recorded result, COCOc1ccc(CO)c2cccc(C)c12 , melting point: 91 to 93 °C

# melting point of C=CCc1ccc2oc(C(=O)OCC)cc(=O)c2c1O = 99 to 100 °C

The compound CCN(CC)C(=O)c1c(I)ccc(F)c1[Si](C)(C)C showed melting point equal to 58.5 to 64 °C

Record C=CCn1c(N)cc(=O)n1-c1ccccc1 , field melting point: 184 to 185 °C

According to the records, this compound CNS(=O)(=O)c1ccc(Cl)c(C)c1Cl displays melting point of 118 °C

// sample OCc1c(F)ccc(-n2cccc2)c1F , its melting point was < 60 °C

Notebook: COc1ccc(C(=O)Nc2c(Cl)cncc2Cl)c2c1OCC2CC(=O)NCc1ccccc1 (stereo unspecified) , melting point read as 284 to 286 °C

get_value(item= CC(C)OCc1cnc2c(N)cccc2c1Cl , readout=melting point) returns 94 to 95 °C

Reported melting point for O=C1CN(CC2CCN(c3ncc4ncnc(Nc5ccc(F)c(Cl)c5)c4n3)CC2)CCO1 was 202 to 204 °C

Cc1nc(C(F)(F)F)ccc1/C=C/C(=O)Nc1ccc2ncsc2c1 yielded melting point of 196 °C

Item: C#CCOCc1c(C)nc2c(OCc3ccccc3OC)cccn12 | melting point: 107 to 108 °C

Field melting point (entry CCO[C@@H](Cc1ccc(OCCc2nc(C(C)(C)C)oc2C)c2ccsc12)C(=O)O ) reads 152 to 153 °C

Looking up C=Cc1cc2cc(OC)ccc2n1C , I found its melting point recorded as 87 to 89 °C

melting point in this record for COc1ccc(S(=O)(=O)C(CC(=O)NO)Cc2ccc(OCc3ccccc3)cc2)cc1 (stereo unspecified) : 128 to 130 °C

For reference, reported melting point for C=CCCN(c1ccc(OC)cc1)S(=O)(=O)c1c(F)c(F)c(F)c(F)c1F stands at 64 to 66 °C

GET /value?item= CN(CCOCC(=O)OC(C)(C)C)C(=O)c1c(-c2ccc(C(C)(C)C)cc2)n(C)n(-c2ccc(C#N)cc2)c1=O &field=melting point returns 218 to 222 °C

GET /value?item= Cc1nc(C)c(C(=O)O)c(-c2ccccc2F)c1C(=O)O &field=melting point returns > 285 °C

The reported value for O=S(=O)(Nc1ccccc1Oc1ccc2ncccc2c1)c1ccc(Cl)cc1 in terms of melting point is 151 to 152 °C

Notebook: Cn1cc(C2=C(c3cn(C)c4ccc(N)cc34)C(=O)NC2=O)c2ccccc21 , melting point read as 254 to 256 °C

# melting point of CN(C)CCCOc1ccc(Nc2nccc(-c3cccnc3)n2)cc1 = 85 to 87 °C

###

Would you kindly list melting point for each of these compounds?

Noted for COc1ccc(-c2oc3cc(OC)cc(O)c3c(=O)c2OC)cc1 : its melting point reads 143 to 145 °C

compound CN1C(=O)C(C)(C)c2ccc(C(=O)O)cc21 , melting point observed: 253 to 255 °C

Field melting point (entry CN1CCN(c2cccc3c2C[C@H](NC(=O)Cc2ccccc2)CC3)CC1 ) reads 151 to 152 °C

# compound Cc1cc(Oc2ccccc2)c(S(C)(=O)=O)cc1C(=O)N=C(N)N ; its melting point = 248 to 250 °C

The reported value for Cc1ccc2c(c1)C(c1ccccc1)CC(N1CCN(C3CC(c4ccccc4)c4cc(C)ccc4O3)CC1)O2 (stereo not given) in terms of melting point is 241 °C

The compound listed as O=C1NC(=S)CCC1N1Cc2c(cccc2[N+](=O)[O-])C1=S (stereo not given) has a reported melting point of 248 to 250 °C

According to the records, this compound O=C1NC(=O)c2ccccc2/C1=C/Nc1ccc2cn[nH]c2c1 displays melting point of > 300 °C

For record O=Cc1ccc(C2CCCc3cncn32)cc1 (stereo not given) the listed melting point is 131 °C

Just so you know, measured melting point for CC(=O)OC(CBr)Cc1c(O)ccc2ncccc12 (stereo not given) came out at 146 to 148 °C

// melting point value for CC1N=C(c2ccccc2F)c2cc(I)ccc2NC1=O (stereo not given) : 211 °C

###

Kindly supply the reported melting point values for the records listed here.

The reported melting point of the molecule Cn1cc(S(=O)(=O)Cl)c(=O)c2cc(F)c(Cl)cc21 was > 300 °C

Form field melting point, entry COc1ccc(Sc2[nH]cc(C(=O)O)c2Sc2ccc(OC)cc2)cc1 : 159 to 162 °C

Given item COc1ccc(C(=O)NCCCCCCCCCNC(=O)c2ccc(OC)cc2)cc1 , the value recorded as its melting point is 156 to 157 °C

Entry Cc1ccccc1-c1cnc2c(C(F)(F)F)cccc2c1-c1cccc(NC(=O)Nc2ccccc2Cl)c1 — recorded melting point = 224 to 226 °C

CCCCc1c(Cl)nc(O)nc1Cl has a reported melting point of 73 to 75 °C

Documented melting point of CCCOC1CCCC(C2NC(=O)C2C(C)O[Si](C)(C)C(C)(C)C)C1O (stereo not given) : 119 to 121 °C

melting point reported for this molecule CNC(Cc1ccccc1N)C(=O)c1ccc(OC)c(OC)c1 (stereo not given) : 128 to 131 °C

Entry under test: CN(C)S(=O)(=O)c1ccc(-c2ccc(-c3ccc(S(=O)(=O)N(C)C)c(S)c3)cc2)cc1S . Its melting point was 194 °C

The reported melting point of the molecule CCCCCC(C(=O)O)c1ccc(Cl)cc1Cl (stereo not given) was 65 to 68 °C

Lab note: measured melting point of O=C(CCl)Nc1cccc(C(=O)Cl)c1 was 106 to 108 °C

The measured melting point associated with CS(=O)(=O)c1cccc(NC(=O)c2cnn3c(C(F)F)cc(-c4ccc(C(F)(F)F)c(F)c4)nc23)c1 reads 238 °C

Field melting point (entry COc1cc(C(=N)NO)ccc1-c1cc(-c2ccc(C(=N)NO)cc2OC)on1 ) reads 203 to 204 °C

Given item CCOc1ccc(-c2nc(OC)ccc2N2CCC(=O)N(c3ccc(OC)cc3)CC2)cc1C , the value recorded as its melting point is 136 to 138 °C

Per the record, COC(=O)NC1(c2ccc(C(C)C)cc2OC)C(=O)c2ccccc2C1=O has melting point of 153 to 155 °C

According to the records, this molecule CCOC(=O)[C@H](Cc1ccc(NC(=O)c2c(Cl)cncc2Cl)cc1)NC1=CC(=O)C12CCCCC2 displays melting point of 194 °C

response.value for CCCCCN1N=C(c2ccc3c(c2)N(S(C)(=O)=O)CCO3)CCC1=O (field: melting point) = 138 to 139 °C

Query CCn1cc(C(=O)NCCCN(C)C)c(=O)c2ccc(I)cc21 yields melting point of 161 to 162 °C

GET /value?item= COc1ccc(Cl)cc1C(=O)NCCc1ccc(-c2ccc(OC(C)(C)CO)cc2)cc1 &field=melting point returns 115 °C

What the record says about CC(C)C(=NO)c1ccc(Br)cc1 : melting point is 126 to 136 °C

Field melting point (entry CCNC(=O)n1nc(Oc2ccc(N)c(C(F)(F)F)c2)cc1C ) reads 102 to 104 °C

###

Give measured melting point for each item. Keep answers brief.

Lab note: measured melting point of Cc1ccc(S(=O)(=O)OCCc2nc(-c3ccc(Br)cc3)oc2C)cc1 was 136 °C

Short answer for Cc1ccccc1-n1c(CF)nc2ccc([N+](=O)[O-])cc2c1=O : melting point was 155 to 158 °C

Query CC(C)CCN(CC(O)C(Cc1ccccc1)NC(=O)C(CC(N)=O)NC(=O)c1ccc2ccccc2n1)C(=O)NC(C)(C)C (centres undefined) yields melting point of 93.5 to 95.6 °C

Item: CCCc1nc(S(=O)(=O)Nc2ccccc2Br)nn1-c1ccccc1 | melting point: 119 to 121 °C

response.value for O=c1cc(-c2ccc(OCc3ccccc3)c(OCc3ccccc3)c2)oc2cc(OCC3CO3)ccc12 (centres undefined) (field: melting point) = 168 to 170 °C

melting point reported for this molecule CN1CCN(c2cc(N)ccc2Br)CC1 : 120 to 122 °C

Lab note: CSc1ccc(/C=C2\N=C(C)OC2=O)cc1 gave melting point of 154 to 155 °C

Lookup result for CC(C)(C)CC(C)(C)c1ccc(Oc2ccc(C(F)(F)F)cc2NC(=O)Nc2cc(C(F)(F)F)cc(C(F)(F)F)c2)c(C(=O)O)c1 ; measured melting point: 233 °C

The molecule listed as Cc1ncc(-c2ccc(F)cc2)n1-c1ccc(Cl)cc1 has a reported melting point of 132 to 134 °C

###

Please go through the items and note down their melting point.

melting point recorded for this molecule, C/C(=C\CNC(=O)c1ccccc1)c1ccccc1 , is 139 °C

Note to self: melting point recorded for COc1ccc(-c2nc(-c3cccs3)c[nH]2)cc1Cl was 82 to 85 °C

// CC1(C)OCc2cc(Cl)cc(C(=O)c3cn(C(c4ccccc4)(c4ccccc4)c4ccccc4)cn3)c2O1 : melting point value = 200 to 205 °C

melting point in this record for O=C1NCC[C@H](c2ccc(C(F)(F)F)cc2)[C@@H]1c1ccccc1 (relative stereo) : 155 to 156 °C

Noted for CC12CCC3C(CCC4CC(F)CCC43C)C1CCC2=O (stereo unspecified) : its melting point reads 126 to 127 °C

Lab note: measured melting point of CC(C)(C)c1cc(SCCSCCC(=O)O)cc(C(C)(C)C)c1O was 57.5 °C

Reported melting point ( CCN1CCCC1CNC(=O)c1c(O)c(OC)c2occc2c1OC (stereo unspecified) ) = 86 °C

Notebook: COC(=O)c1ccccc1NC1C=CC(=O)O1 (stereo unspecified) , melting point read as 172 to 173 °C

Measured melting point of O=C(O)CC1=C(Cc2ccc3c(Cl)cccc3c2)C(=O)CCC1 : 98 to 100 °C

melting point for COc1ccc(OC)c(Nc2nc(-c3cccc([N+](=O)[O-])c3)cs2)c1 is 154 °C

For record Cc1cc([N+](=O)[O-])ccc1N1CCOCC1 the listed melting point is 147 to 150 °C
